- Target Or Test System: Factor X, P00742
- Sequence (P00742 whole entry, looked up): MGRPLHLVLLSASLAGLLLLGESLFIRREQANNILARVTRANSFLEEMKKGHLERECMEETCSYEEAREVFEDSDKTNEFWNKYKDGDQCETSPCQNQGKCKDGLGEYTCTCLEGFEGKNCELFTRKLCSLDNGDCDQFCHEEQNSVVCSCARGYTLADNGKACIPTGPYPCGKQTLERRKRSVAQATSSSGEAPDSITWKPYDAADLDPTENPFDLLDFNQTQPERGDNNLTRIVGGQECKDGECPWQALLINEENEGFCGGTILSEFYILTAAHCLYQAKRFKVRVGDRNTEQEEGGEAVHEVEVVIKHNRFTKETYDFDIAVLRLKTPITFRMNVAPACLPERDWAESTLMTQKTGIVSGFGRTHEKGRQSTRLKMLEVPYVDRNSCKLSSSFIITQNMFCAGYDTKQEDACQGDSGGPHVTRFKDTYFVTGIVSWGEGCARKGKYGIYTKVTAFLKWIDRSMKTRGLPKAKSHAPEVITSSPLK

Protein | KM / µM
FIXa-D203N/F205T/R338E (protein) chain 1: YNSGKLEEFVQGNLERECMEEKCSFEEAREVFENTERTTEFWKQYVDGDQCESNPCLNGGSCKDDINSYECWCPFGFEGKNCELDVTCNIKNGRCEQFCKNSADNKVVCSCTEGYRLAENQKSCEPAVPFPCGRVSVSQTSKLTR chain 2: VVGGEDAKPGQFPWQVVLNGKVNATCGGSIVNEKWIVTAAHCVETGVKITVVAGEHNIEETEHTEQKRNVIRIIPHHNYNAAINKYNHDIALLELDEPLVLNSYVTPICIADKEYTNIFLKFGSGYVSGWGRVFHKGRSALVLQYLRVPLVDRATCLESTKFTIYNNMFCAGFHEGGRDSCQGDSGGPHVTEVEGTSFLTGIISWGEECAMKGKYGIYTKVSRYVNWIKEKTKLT | 0.0241
FIXa-Y155F/R318Y/R338E/R403E/E410N (protein) chain 1: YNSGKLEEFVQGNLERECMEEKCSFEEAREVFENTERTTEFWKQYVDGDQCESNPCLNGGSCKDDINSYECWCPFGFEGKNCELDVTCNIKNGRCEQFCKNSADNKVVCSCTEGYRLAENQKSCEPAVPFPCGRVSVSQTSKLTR chain 2: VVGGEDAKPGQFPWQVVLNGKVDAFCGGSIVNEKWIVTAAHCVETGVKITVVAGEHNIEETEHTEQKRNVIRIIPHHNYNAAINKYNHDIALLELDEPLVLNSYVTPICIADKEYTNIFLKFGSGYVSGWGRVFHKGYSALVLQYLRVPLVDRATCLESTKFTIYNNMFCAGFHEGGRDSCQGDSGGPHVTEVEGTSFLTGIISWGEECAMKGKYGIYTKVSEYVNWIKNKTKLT | 0.0304
FIXa-R318Y/R338E/E410N (protein) chain 1: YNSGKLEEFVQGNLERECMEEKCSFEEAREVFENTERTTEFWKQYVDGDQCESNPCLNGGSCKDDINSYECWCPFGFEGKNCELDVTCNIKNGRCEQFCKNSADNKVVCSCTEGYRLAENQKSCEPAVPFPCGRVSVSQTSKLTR chain 2: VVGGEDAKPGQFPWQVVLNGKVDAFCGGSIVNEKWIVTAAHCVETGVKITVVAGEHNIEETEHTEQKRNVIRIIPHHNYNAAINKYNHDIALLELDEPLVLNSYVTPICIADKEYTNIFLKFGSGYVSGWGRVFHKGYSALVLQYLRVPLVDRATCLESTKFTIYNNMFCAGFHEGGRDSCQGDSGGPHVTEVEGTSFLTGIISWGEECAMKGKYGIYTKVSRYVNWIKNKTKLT | 0.0142
FIXa-I251S/R318Y/R338E/R403E/E410N (protein) chain 1: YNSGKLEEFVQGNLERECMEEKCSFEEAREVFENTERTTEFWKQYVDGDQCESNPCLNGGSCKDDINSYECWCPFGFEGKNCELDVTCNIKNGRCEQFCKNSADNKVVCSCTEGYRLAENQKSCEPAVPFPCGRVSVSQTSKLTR chain 2: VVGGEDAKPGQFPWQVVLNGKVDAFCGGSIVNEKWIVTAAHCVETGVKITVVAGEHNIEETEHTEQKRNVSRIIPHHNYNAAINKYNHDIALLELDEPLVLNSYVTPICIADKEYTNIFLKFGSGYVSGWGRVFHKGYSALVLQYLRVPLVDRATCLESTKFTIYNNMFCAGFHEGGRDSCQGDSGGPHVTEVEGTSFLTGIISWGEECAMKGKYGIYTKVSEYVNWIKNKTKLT | 0.0334

The origin of these recorded values is patent US20210238260.
